Data origin, for the record: paper PMC10614203

So I've got a bunch of compounds here, and I need their Ki values.
Target: hCB1R (Homo sapiens)
Construct: host or cells: CHO cells, stably transfected
Sequence (P21554 whole entry): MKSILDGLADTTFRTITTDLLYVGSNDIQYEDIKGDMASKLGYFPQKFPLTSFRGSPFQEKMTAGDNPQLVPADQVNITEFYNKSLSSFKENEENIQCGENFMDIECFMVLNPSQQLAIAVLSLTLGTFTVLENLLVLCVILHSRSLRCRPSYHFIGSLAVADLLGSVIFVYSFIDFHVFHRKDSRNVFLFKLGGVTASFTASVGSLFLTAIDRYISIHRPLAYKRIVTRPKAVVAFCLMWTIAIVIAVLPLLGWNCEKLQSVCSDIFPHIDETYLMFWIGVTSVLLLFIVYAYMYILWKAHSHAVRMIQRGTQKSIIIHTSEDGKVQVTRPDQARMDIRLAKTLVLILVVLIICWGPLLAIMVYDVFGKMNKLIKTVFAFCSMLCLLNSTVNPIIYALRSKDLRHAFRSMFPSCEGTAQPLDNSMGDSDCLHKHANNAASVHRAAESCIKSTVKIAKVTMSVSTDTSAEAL
Assay: Radioligand displacement assay, [3H]SR141716A from homogenates of hCB1R-CHO cells
Assay type: binding
Settings: hCB1R-CHO homogenates, displacement of [3H]SR141716A; read-out: CB1R Ki

Please look at the items below and tell me Ki for each one, in order.
1. O=C(NC12CC3CC(CC(C3)C1)C2)c1cc2cc(F)ccc2[nH]1 [Compound 21E]
2. CC1(C)Cc2ccc(C#N)cc2C1NC(=O)c1cc2cc(F)ccc2[nH]1 (racemic) [Compound (±)-6]
3. CC1(C)Cc2ccc(C#N)cc2[C@@H]1NC(=O)c1nc2cc(F)ccc2[nH]1 [Compound 19G]
4. Cc1c(C(=O)N[C@H]2c3cc(C#N)ccc3CC2(C)C)[nH]c2ccc(F)cc12 [Compound 19F]

Response:
> 1000 nM
842 nM
> 100 nM
> 100 nM

###

Target: hCB2R (Homo sapiens, UniProt P34972)
Construct: host or cells: CHO cells, stably transfected
Sequence (P34972 whole entry): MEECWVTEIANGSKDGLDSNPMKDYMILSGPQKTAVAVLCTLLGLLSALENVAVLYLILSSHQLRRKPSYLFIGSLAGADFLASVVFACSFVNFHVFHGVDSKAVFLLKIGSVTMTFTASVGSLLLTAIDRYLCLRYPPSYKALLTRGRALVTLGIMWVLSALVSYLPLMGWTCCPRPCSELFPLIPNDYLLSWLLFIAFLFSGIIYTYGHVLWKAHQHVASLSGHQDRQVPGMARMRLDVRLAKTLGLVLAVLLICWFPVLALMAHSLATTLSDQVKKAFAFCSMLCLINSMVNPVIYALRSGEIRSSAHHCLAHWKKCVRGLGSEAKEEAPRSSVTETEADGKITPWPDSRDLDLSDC
Assay: Competitive radioligand binding assay, displacement of [3H]WIN55212-2 from homogenates of hCB2R-CHO cells
Details: enantiomer obtained by chiral HPLC separation (Scheme 1); hCB2R-CHO, [3H]WIN55.2212-2; read-out: CB2R Ki
property-measured: Ki

Query: Entry under review: CC1(C)Cc2ccc(C#N)cc2C1NC(=O)c1cc2cc(F)ccc2[nH]1 (stereo not drawn) [Compound (+)-6] . Reported Ki?
Response: > 1 µM

###

Assay: Lipophilicity log D7.4, shake flask method, n-octanol/PBS
Format: physicochemical
Conditions: n-octanol/PBS 0.01 M, pH 7.4, room temperature
Protocol: The most efficient protocol for the manual radiosynthesis of [^18F]RM365 was transferred to an automated synthesis module (Elysia-Raytest radiosynthesizer). […] A log D7.4 of 3.0 ± 0.1 was determined by the shake flask method.[80],[81] Log D7.4 of [^18F]RM365 was experimentally determined in n-octanol/PBS, 0.01 M, pH 7.4, at room temperature by the shake flask method. […]
property-measured: logD
One number for each entry.

Query: Report logD for CC1(C)Cc2ccc(C#N)cc2[C@@H]1NC(=O)c1cc2cc([18F])ccc2[nH]1 [[^18F]RM365] please.
Response: 3

###

Target: hCB1R (Homo sapiens)
Construct: host or cells: CHO cells, stably transfected
Experiment: Radioligand displacement assay, [3H]SR141716A from homogenates of hCB1R-CHO cells
Assay type: binding
Conditions: enantiomer obtained by chiral HPLC separation (Scheme 1); hCB1R-CHO, [3H]SR141716A; read-out: CB1R Ki
property-measured: Ki (nM)
Give bare numbers, in nM.

Query: I'd like to know its Ki. The molecule in question is `CC1(C)Cc2ccc(C#N)cc2[C@@H]1NC(=O)c1cc2cc(F)ccc2[nH]1`
Response: 827

###

Target: hCB2R (Homo sapiens)
Construct: host or cells: CHO cells, stably transfected
Assay: Competitive radioligand binding assay, displacement of [3H]WIN55212-2 from homogenates of hCB2R-CHO cells
Conditions: compound obtained by enantioselective synthesis (Scheme 2); hCB2R-CHO, [3H]WIN55.2212-2; read-out: CB2R Ki
property-measured: pKi
Answers are plain numbers, as −log10 of the molar value.

Query: Fill in the blank: the reported pKi of `CC1(C)Cc2ccc(C#N)cc2[C@@H]1NC(=O)c1cc2cc(F)ccc2[nH]1` is ____.
Response: 8.45
